Data origin: the supplement of paper PMC10567573

B1: NET1 (parent)
chain: PTPAKRRSSALWSEMLDITMKESL

Variants of: B1
Assay: protein stability index of a GFP-peptide fusion (GPS, HEK-293T) (PSI 1-6); higher = more stable;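 also: lentivirally expressed fusions sorted by FACS into six bins by GFP to DsRed ratio, PSI derived from sequencing read proportions per bin multiplied by bin number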
Settings: c terminus: a fixed tail appended
Rule: criterion met for protein stability index not less than 2, criterion not met for anything less.

Answered cases to consult:
PTAAKRRSSALWSEMLDITMKESL
criterion not met
GTPAKRRSSALWSEMLDITMKESL
criterion met
PTMAKRRSSALWSEMLDITMKESL
criterion met
PTPAKRRSSALWSEPLDITMKESL
criterion met
PTPAKRRTSALWSEMLDITMKESL
criterion met
PTPAKRRSSALASEMLDITMKESL
criterion met
PTPAKRRSSALWSEMLDITMAESL
criterion met
PTPAKRRSSALWSEMLDWTMKESL
criterion not met
PTPAKRRSSALWSELLDITMKESL
criterion met
PTPAKRRSSALWSEMPDITMKESL
criterion met

Request: Check this variant for protein stability index at or above 2: PTPAKNRSSALWSEMLDITMKESL
Result: criterion met

Request: Exam item: decide whether the reported protein stability index for PTPWKRRSSALWSEMLDITMKESL is at least 2.
Result: criterion met

Request: Is reported protein stability index greater than or equal to 2 here: PTPAKRRSAALWSEMLDITMKESL
Result: criterion met

Request: Quick check: does PTPAKRRGSALWSEMLDITMKESL have protein stability index greater than or equal to 2?
Result: criterion met

Request: Determine whether measured protein stability index meets or exceeds 2 for PTDAKRRSSALWSEMLDITMKESL
Result: criterion met

Request: Check this variant for protein stability index at or above 2: PTPAKKRSSALWSEMLDITMKESL
Result: criterion met

Request: Form field: protein stability index at least 2? Entry: PTPASRRSSALWSEMLDITMKESL
Result: criterion met

Request: Confirm if protein stability index reported for the variant PTPACRRSSALWSEMLDITMKESL is 2 or above.
Result: criterion met

Request: Check this variant for protein stability index at or above 2: PTPAKRRSSALWSEMLDITMNESL
Result: criterion met

Request: Threshold query (protein stability index >= 2) on PTPAKRRSSALWSEMLDIIMKESL
Result: criterion not met
